# assay.summary: Solubility in water and simulated fluids (FaSSIF, FaSSGF) at 37 °C
# Assay type: physicochemical
# condition.info: water, 37 °C, water, thermodynamic from solid, water, about 37 °C; read-out: Solubility in water
property: solubility at 24 h (µg/mL)
Output spec: scalar in µg/mL, unitless text.

Request: Given the compound CCNn1c(C)c(C(=O)N[C@H](c2ccccc2)C2CC2)c2cccc(F)c2c1=O [Pattern α] , what is its reported solubility at 24 h?
Result: 6

###

# assay.summary: Solubility by gravimetric method in 14 solvents
# Assay type: physicochemical
# condition.info: acetic acid, 50 °C, organic solvent or mixture, thermodynamic from solid
# Procedure: Solubility measurements were done by gravimetric method in 14 different solvents at two temperatures (23° C. and 50° C.). About 25-35 mg solid was dispensed in 2 mL vials and 0.75 mL solvent was added to form a slurry. The slurries were then stirred for two days. The vials were centrifuged and the supernatant was collected for solubility measurement by gravimetric method.
property: solubility at 2 days

Request: Given the compound CCNn1c(C)c(C(=O)N[C@H](c2ccccc2)C2CC2)c2cccc(F)c2c1=O , what is its reported solubility at 2 days?
Result: > 72 mg/mL
